# Test system: Escherichia coli
# experiment-description: Antibacterial activity against Escherichia coli JM 109 by twofold serial dilution technique
# Format: functional
observed-property: MIC (µg/mL)
Just the number in µg/mL, nothing appended.

CCCCCCCCCCCCCCCCn1cc(CNS(=O)(=O)c2ccc(N)cc2)nn1 ... 256
O=C(N[C@H](CO)[C@H](O)c1ccc([N+](=O)[O-])cc1)C(Cl)Cl [CHLORAMPHENICOL] ... 4
Nc1ccc(S(=O)(=O)NCc2cn(Cc3ccc(Cl)cc3Cl)nn2)cc1 ... 128
Nc1ccc(S(=O)(=O)NCc2cn(Cc3ccc(F)cc3)nn2)cc1 ... 256
CCCCCCCCCCCCn1cc(CNS(=O)(=O)c2ccc(N)cc2)nn1 ... 64

stdin: Given the compound Nc1ccc(S(=O)(=O)NCc2cn(Cc3ccc(F)cc3F)nn2)cc1 , what is its reported MIC?
stdout: 128

stdin: Consider next the compound CCCCCCCCn1cc(CNS(=O)(=O)c2ccc(N)cc2)nn1 in the same way.
stdout: 512

stdin: Now this one: CCCCCCCCCCn1cc(CNS(=O)(=O)c2ccc(N)cc2)nn1
stdout: 512
